Target: human MAGL (Homo sapiens (Human))
Sequence (Q99685 2-303): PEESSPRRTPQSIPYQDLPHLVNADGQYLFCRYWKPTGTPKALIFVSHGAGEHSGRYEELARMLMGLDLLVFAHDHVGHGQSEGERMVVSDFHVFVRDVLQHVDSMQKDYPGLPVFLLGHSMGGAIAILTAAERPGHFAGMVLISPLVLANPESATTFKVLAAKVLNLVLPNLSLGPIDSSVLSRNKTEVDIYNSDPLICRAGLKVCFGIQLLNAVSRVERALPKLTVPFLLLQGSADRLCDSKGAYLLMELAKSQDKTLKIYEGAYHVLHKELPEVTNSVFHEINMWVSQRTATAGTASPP
Test details: MAGL inhibition potency assay with 4NPA substrate (methods of Table C)
Type: biochemical
Test conditions: Method 1: Reaction Biology MAGL enzyme, 6 nM; read-out: MAGL Potency (Detection Method)
Protocol: Cayman's Monoacylglycerol Lipase Inhibitor Screening Assay provides a method for screening human MAGL inhibitors. MAGL hydrolyzes 4-nitrophenylacetate resulting in a yellow product, 4-nitrophenol, with an absorbance of 405-412 nm. […] MAGL hydrolyzes 4-nitrophenylacetate resulting in a yellow product, 4-nitrophenol, with an absorbance of 405-412 nm. MAGL Inhibition was measured by the following assay. […] Hydrolysis of the substrate in the presence of the enzyme was measured by absorbance at 405 nm. […]
Result type: IC50

Completed entries (count: 2):
stdin: For the molecule shown here, `Cc1cc(C2CC3(C2)CN(C(=O)c2cc(O)c(F)cc2F)C3)n(-c2ccccc2C)n1` , give the reported IC50.
stdout: < 50 nM

stdin: Also `Cc1cc(C2CC3(C2)CN(C(=O)c2cc(O)ccc2C#N)C3)n(-c2ccccc2C)n1` , if possible.
stdout: < 50 nM

Proceed to the following item.
stdin: For the molecule shown here, `Cc1cc(C2CC3(C2)CN(C(=O)c2cc(O)ccc2F)C3)n(-c2ccccc2C)n1` , give the reported IC50.
stdout: < 50 nM
